tested on: SEM cells; experiment: cell viability relative to DMSO control; higher = less cytotoxic; details: RPMI 5 mM glucose + 10% dialyzed FBS; 48 h; 5.12 µM
Each entry below lists one item and its recorded cell viability value.

compound	cell viability
CO[C@@H]1[C@H](N(C)C(=O)c2ccccc2)C[C@H]2O[C@]1(C)n1c3ccccc3c3c4c(c5c6ccccc6n2c5c31)C(=O)NC4	11.8%
CCC1=C(C)CN(C(=O)NCCc2ccc(S(=O)(=O)NC(=O)N[C@H]3CC[C@H](C)CC3)cc2)C1=O	94.3%
O=C(C1CCCCC1)N1CC(=O)N2CCc3ccccc3C2C1 (centres undefined)	75%
CCOc1cc2c(c(F)c1OCC)C(=N)N(CC(=O)c1cc(N3CCOCC3)c(OC)c(C(C)(C)C)c1)C2	117%

The reported measurements were obtained from the supplement of paper PMC11451515.
